- Test system: HT-29
- Assay Notes: NCI tumour cell line growth inhibition, 48 h
Active and inactive are the calls of the source. No stated cut-off is given here; in the data, active = GI50 up to about 1.1 µM and inactive = higher.

- Compound: "N#C[C@@H](c1nc2ccccc2s1)c1ncccc1[N+](=O)[O-]"
  GI50: "8.3 µM (inactive)"
- Compound: "CC(C)/C(Cl)=N/OC(=O)Nc1ccc(Cl)c(Cl)c1"
  GI50: "5.48 µM (inactive)"
- Compound: "Clc1ccc(NCNC2Nc3ccccc3N2)cc1Cl"
  GI50: "13.7 µM (inactive)"
- Compound: "COc1ccccc1-n1cnc2c1=NC(C)(C)NC=2C(N)=O"
  GI50: "> 100 µM (inactive)"
- Compound: "C[n+]1c2ccccc2n2c3ccccc3c(NCc3ccco3)c(C#N)c21"
  GI50: "2.7 µM (inactive)"
- Compound: "Cc1cc(C(=O)CSC(=S)SC(C)(C)C)ccc1Cl"
  GI50: "25.1 µM (inactive)"
- Compound: "[N-]=[N+]=NC1C2CC3CC(C2)CC1C3 (stereo not drawn)"
  GI50: "> 100 µM (inactive)"
- Compound: "Cc1cccc2c(N)c3cccc(C(=O)NCC[N+](C)(C)[O-])c3nc12"
  GI50: "6.01 µM (inactive)"

* * *

- Tested on: U-251
- Assay Notes: NCI tumour cell line growth inhibition, 48 h
Where a name gives a salt, the structure may show the parent alone. The source made the active and inactive calls. Cut-off read from the data, not from the text of the source: active = GI50 up to about 1.1 µM and inactive = higher. Residues, ends and D or L forms follow the SMILES beside them. *: point of attachment. Tfa = O=C(C(F)(F)F)*
Classes used: 1 (yes) for active, 0 (no) for inactive

- Compound: "N#CC1C(=O)SC2c3ccccc3C(=O)c3ccccc3C12 (stereo not given)"
  Qualitative Label: "0 (no)"
- Compound: "O=C(Nc1nnc(-c2ccc(Cl)cc2)o1)C(SC(=S)N1CCCCC1)c1ccccc1 (stereo not given)"
  Qualitative Label: "0 (no)"
- Compound: "O=C(O)CC(NC(=O)C(F)(F)F)C(=O)NC(Cc1ccc(O)cc1)C(=O)O (stereo not drawn) (Tfa-Asp-Tyr-OH; configuration not given here)"
  Qualitative Label: "0 (no)"
- Compound: "CC1=N/C(=C\\c2c(O)ccc3ccccc23)C(=O)O1"
  Qualitative Label: "0 (no)"
- Compound: "C[Si](C)(C)C#CCO[Si](C)(C)C"
  Qualitative Label: "0 (no)"
- Compound: "C=CC/C=C/C/C=C/CCCCCCCc1cccc(O)c1C(=O)O"
  Qualitative Label: "0 (no)"
- Compound: "[O-][n+]1c2cccc(O)c2[n+]([O-])c2cccc(O)c21"
  Qualitative Label: "0 (no)"
- Compound: "O=C1CSc2nnc(CCCCCCCCc3nnc4n3NC(=O)CS4)n2N1"
  Qualitative Label: "0 (no)"
- Compound: "COc1ccc2nc3c(nc2c1)C(C)(C)C=C3c1ccc(Br)cc1"
  Qualitative Label: "0 (no)"
- Compound: "CN(CCCNC(=O)c1cn(C)c2c1ccc1cc(Cl)c(Cl)cc12)CCCNC(=O)c1cn(C)c2c1ccc1cc(Cl)c(Cl)cc12"
  Qualitative Label: "0 (no)"
- Compound: "CCCCCc1cc2cc3c(c(O)c2c(=O)[nH]1)C1(CC3)C(=O)c2c(O)c3c(c(O)c2C1=O)C(=O)C(OC)=CC3=O (stereo not given)"
  Qualitative Label: "1 (yes)"
- Compound: "C[C@H](C(=O)O)C(=O)NC(=O)N(Cc1ccccc1)N=O"
  Qualitative Label: "0 (no)"
- Compound: "O=C(Nc1ccc(F)cc1)C(=O)C(C(=O)c1ccccc1F)C1OC(=O)c2ccccc21 (stereo not given)"
  Qualitative Label: "0 (no)"
- Compound: "CC(c1ccccc1)N1CC(C)(c2ccccc2)N(O)C(c2ccccc2)C1C (stereo not given)"
  Qualitative Label: "0 (no)"
- Compound: "Cc1cn([C@@H]2O[C@H](CO[Si](C)(C)C(C)(C)C)[C@]3(O[C@H]3C(=O)NO)[C@H]2O[Si](C)(C)C(C)(C)C)c(=O)[nH]c1=O"
  Qualitative Label: "0 (no)"
- Compound: "C=C(Cl)C(=C)CCC(Cl)C(C)(C)Cl (stereo not given)"
  Qualitative Label: "0 (no)"
- Compound: "Cc1ccccc1-c1nc2c(N)nc(N)nc2nc1N"
  Qualitative Label: "0 (no)"
- Compound: "S=C(Nc1cccc(C2(N3CCCCC3)CCCCC2)c1)Nc1cccc(C2(N3CCCCC3)CCCCC2)c1"
  Qualitative Label: "0 (no)"
- Compound: "CC(C)C(C/C=C1/CC(CO)(COC(=O)CC(C(C)C)C(C)C)OC1=O)C(C)C (stereo not given)"
  Qualitative Label: "0 (no)"
- Compound: "CC(C)/C(Cl)=N/OC(=O)Nc1ccc(Cl)c(Cl)c1"
  Qualitative Label: "0 (no)"
